Parameter HC10: see the listing below.
Tested on: rat erythrocytes
Assay: Hemolysis assay
Format: cell-based
Conditions: pH 7.4
Method: The hemolysis assay was performed using rat erythrocytes in phosphate‐buffered saline (PBS), as reported by Mendes et al.^[ [45] ^] Animal studies were approved by the Laboratory Animal Resource Center of Gwangju Institute of Science and Technology. […] Aliquots (150 µL) of the supernatant were transferred to fresh 96‐well plates, and the absorbance of each well was measured at 540 nm using a microplate reader. […]
Square brackets hold non-standard residues; d marks the D form. Peptide text beside a SMILES is read from it. Gly(N(CH2)2(3-indolyl)) = O=C(O)CNCCc1c[nH]c2ccccc12; Nspe = C[C@H](NCC(=O)O)c1ccccc1; Nlys = NCCCCNCC(=O)O
Only the number, expressed in µM, is required.

>>> observed_value("C[C@@H](c1ccccc1)N(CC(=O)N(CCCCN)CC(=O)N(CC(=O)N(CC(=O)N(CCCCN)CC(=O)N(CC(=O)N(CC(=O)N(CCCCN)CC(=O)N(CC(=O)N(CC(=O)N(CCCCN)CC(=O)N(CCCCN)CC(N)=O)[C@@H](C)c1ccccc1)[C@@H](C)c1ccccc1)[C@@H](C)c1ccccc1)[C@@H](C)c1ccccc1)[C@@H](C)c1ccccc1)[C@@H](C)c1ccccc1)C(=O)CNCCc1c[nH]c2ccccc12 [peptoid 61] (H-[Gly(N(CH2)2(3-indolyl))][Nspe][Nlys][Nspe][Nspe][Nlys][Nspe][Nspe][Nlys][Nspe][Nspe][Nlys][Nlys]-NH2)")
19.3

Could you now consider this next compound?
[in] Find the measured HC10 of C[C@@H](c1ccccc1)N(CC(=O)N(CCCCN)CC(=O)N(CC(=O)N(CC(=O)N(CCCCN)CC(=O)N(CC(=O)N(CC(=O)N(CCCCN)CC(=O)N(CCc1c[nH]c2ccccc12)CC(=O)N(CCc1c[nH]c2ccccc12)CC(N)=O)[C@@H](C)c1ccccc1)[C@@H](C)c1ccccc1)[C@@H](C)c1ccccc1)[C@@H](C)c1ccccc1)C(=O)CN(CCCCN)C(=O)CNCCCCN [peptoid 31] (H-[Nlys][Nlys][Nspe][Nlys][Nspe][Nspe][Nlys][Nspe][Nspe][Nlys][Gly(N(CH2)2(3-indolyl))][Gly(N(CH2)2(3-indolyl))]-NH2) and report it.
[out] 59.0

---

test system: rat erythrocytes; assay: Hemolysis assay; assay type: cell-based; details: red cells of rat
Where a name gives a salt, the structure may show the parent alone.
parameter_measured: HC50 (µM)
Numeric answer only, unit µM assumed.

Record excerpt, results attached:
>>> observed_value("C[C@@H](c1ccccc1)N(CC(N)=O)C(=O)CN(C(=O)CN(CCCCN)C(=O)CN(C(=O)CN(C(=O)CN(CCCCN)C(=O)CN(C(=O)CN(C(=O)CN(CCCCN)C(=O)CN(CCc1c[nH]c2ccccc12)C(=O)CN(CCc1c[nH]c2ccccc12)C(=O)CNCCCCN)[C@@H](C)c1ccccc1)[C@@H](C)c1ccccc1)[C@@H](C)c1ccccc1)[C@@H](C)c1ccccc1)[C@@H](C)c1ccccc1 [14-AcOH]")
51.8
>>> observed_value("C[C@@H](c1ccccc1)N(CC(N)=O)C(=O)CN(C(=O)CN(CCCCN)C(=O)CN(C(=O)CN(C(=O)CN(CCCCN)C(=O)CN(C(=O)CN(C(=O)CN(CCCCN)C(=O)CN(CCc1c[nH]c2ccccc12)C(=O)CN(C(=O)CNCCCCN)[C@@H](C)c1ccccc1)[C@@H](C)c1ccccc1)[C@@H](C)c1ccccc1)[C@@H](C)c1ccccc1)[C@@H](C)c1ccccc1)[C@@H](C)c1ccccc1 [10-HCl]")
37.8

[in] # return recorded HC50 for entry C[C@@H](c1ccccc1)N(CC(N)=O)C(=O)CN(C(=O)CN(CCCCN)C(=O)CN(C(=O)CN(C(=O)CN(CCCCN)C(=O)CN(C(=O)CN(C(=O)CN(CCCCN)C(=O)CN(CCc1c[nH]c2ccccc12)C(=O)CN(CCc1c[nH]c2ccccc12)C(=O)CNCCCCN)[C@@H](C)c1ccccc1)[C@@H](C)c1ccccc1)[C@@H](C)c1ccccc1)[C@@H](C)c1ccccc1)[C@@H](C)c1ccccc1 [peptoid 14]
[out] 21.1

---

tested on: rat erythrocytes; assay: Hemolysis assay; format: cell-based
Square brackets hold non-standard residues; d marks the D form. Peptide text beside a SMILES is read from it. Nspe = C[C@H](NCC(=O)O)c1ccccc1; Nphe = O=C(O)CNCc1ccccc1; Nlys = NCCCCNCC(=O)O
parameter_measured: H max (100 µM) (%)
Dear colleague, please return just the value in %, with no unit written.

[in] Identify measured H max (100 µM) associated with C[C@@H](c1ccccc1)N(CC(=O)N(CCCCN)CC(=O)N(CC(=O)N(CC(N)=O)Cc1ccccc1)Cc1ccccc1)C(=O)CN(CCCCN)C(=O)CN(CCCCN)C(=O)CN(C(=O)CN(C(=O)CN(CCCCN)C(=O)CN(C(=O)CN(C(=O)CNCCCCN)[C@@H](C)c1ccccc1)[C@@H](C)c1ccccc1)[C@@H](C)c1ccccc1)[C@@H](C)c1ccccc1 [peptoid 45] (H-[Nlys][Nspe][Nspe][Nlys][Nspe][Nspe][Nlys][Nlys][Nspe][Nlys][Nphe][Nphe]-NH2)
[out] 4.5

---

test system: rat erythrocytes; assay: Hemolysis assay; assay type: cell-based
Square brackets hold non-standard residues; d marks the D form. Peptide text beside a SMILES is read from it. Gly(N(CH2)2(3-indolyl)) = O=C(O)CNCCc1c[nH]c2ccccc12; Nspe = C[C@H](NCC(=O)O)c1ccccc1; Nphe = O=C(O)CNCc1ccccc1; Nlys = NCCCCNCC(=O)O
Recorded Hmax (100 µM), one value per entry.
Your answer is read as %, so omit the unit and give the number.

>>> observed_value("C[C@@H](c1ccccc1)N(CC(=O)N(CCCCN)CC(=O)N(CC(=O)N(CC(=O)N(CCCCN)CC(=O)N(CCCCN)CC(=O)N(CC(=O)N(CCCCN)CC(=O)N(CCc1c[nH]c2ccccc12)CC(=O)N(CCc1c[nH]c2ccccc12)CC(N)=O)Cc1ccccc1)[C@@H](C)c1ccccc1)[C@@H](C)c1ccccc1)C(=O)CN(C(=O)CNCCCCN)[C@@H](C)c1ccccc1 [peptoid 39] (H-[Nlys][Nspe][Nspe][Nlys][Nspe][Nspe][Nlys][Nlys][Nphe][Nlys][Gly(N(CH2)2(3-indolyl))][Gly(N(CH2)2(3-indolyl))]-NH2)")
10.2

Note: attention shifts to another entry.
[in] GET Hmax (100 µM) where system = rat erythrocytes and item = C[C@@H](c1ccccc1)N(CC(N)=O)C(=O)CN(C(=O)CN(CCCCN)C(=O)CN(CCc1c[nH]c2ccccc12)C(=O)CN(CCc1c[nH]c2ccccc12)C(=O)CN(CCCCN)C(=O)CN(C(=O)CN(C(=O)CN(CCCCN)C(=O)CN(C(=O)CN(C(=O)CNCCCCN)[C@@H](C)c1ccccc1)[C@@H](C)c1ccccc1)[C@@H](C)c1ccccc1)[C@@H](C)c1ccccc1)[C@@H](C)c1ccccc1
[out] 87.4

---

H max (100 µM) values for the molecules below.
tested on: rat erythrocytes; assay: Hemolysis assay; type: cell-based
Square brackets hold non-standard residues; d marks the D form. Peptide text beside a SMILES is read from it. Gly(N(CH2)2(3-indolyl)) = O=C(O)CNCCc1c[nH]c2ccccc12; Nspe = C[C@H](NCC(=O)O)c1ccccc1; Nlys = NCCCCNCC(=O)O
Response body: numeric value in %, unit text excluded.

[in] Assign H max (100 µM) to the following record: C[C@@H](c1ccccc1)N(CC(=O)N(CCCCN)CC(=O)N(CCc1c[nH]c2ccccc12)CC(=O)N(CCc1c[nH]c2ccccc12)CC(N)=O)C(=O)CN(CCCCN)C(=O)CN(CCCCN)C(=O)CN(C(=O)CN(C(=O)CN(CCCCN)C(=O)CN(C(=O)CN(C(=O)CNCCCCN)[C@@H](C)c1ccccc1)[C@@H](C)c1ccccc1)[C@@H](C)c1ccccc1)[C@@H](C)c1ccccc1 [peptoid 29] (H-[Nlys][Nspe][Nspe][Nlys][Nspe][Nspe][Nlys][Nlys][Nspe][Nlys][Gly(N(CH2)2(3-indolyl))][Gly(N(CH2)2(3-indolyl))]-NH2)
[out] 9.8

[in] Report H max (100 µM) for CC[C@H](C)[C@H](N)C(=O)N[C@@H](CC(C)C)C(=O)N[C@@H](CCCNC(=N)N)C(=O)N[C@@H](Cc1c[nH]c2ccccc12)C(=O)N1CCC[C@H]1C(=O)N[C@@H](Cc1c[nH]c2ccccc12)C(=O)N[C@@H](Cc1c[nH]c2ccccc12)C(=O)N1CCC[C@H]1C(=O)N[C@@H](Cc1c[nH]c2ccccc12)C(=O)N[C@@H](CCCNC(=N)N)C(=O)N[C@@H](CCCNC(=N)N)C(=O)N[C@@H](CCCCN)C(N)=O [Omiganan, reference compound] (H-ILRWPWWPWRRK-NH2)
[out] 0

---

test system: rat erythrocytes; assay: Hemolysis assay; format: cell-based
Square brackets hold non-standard residues; d marks the D form. Peptide text beside a SMILES is read from it. Nspe = C[C@H](NCC(=O)O)c1ccccc1; Nphe = O=C(O)CNCc1ccccc1; Nlys = NCCCCNCC(=O)O
Kindly apply the following: satisfied if Hmax (100 µM) is less than 30%, not satisfied in every other case.

Previously resolved entries follow.
>>> label_value("C[C@@H](c1ccccc1)N(CC(=O)N(CCCCN)CC(=O)N(CC(=O)N(CC(N)=O)Cc1ccccc1)Cc1ccccc1)C(=O)CN(CCCCN)C(=O)CN(CCCCN)C(=O)CN(C(=O)CN(C(=O)CN(CCCCN)C(=O)CN(C(=O)CN(C(=O)CNCCCCN)[C@@H](C)c1ccccc1)[C@@H](C)c1ccccc1)[C@@H](C)c1ccccc1)[C@@H](C)c1ccccc1 [peptoid 45] (H-[Nlys][Nspe][Nspe][Nlys][Nspe][Nspe][Nlys][Nlys][Nspe][Nlys][Nphe][Nphe]-NH2)")
"satisfied"
>>> label_value("C[C@@H](c1ccccc1)N(CC(=O)N(CCCCN)CC(=O)N(CC(=O)N(CC(=O)N(CCCCN)CC(=O)N(CC(=O)N(CC(=O)N(CCCCN)CC(=O)N(CCCCN)CC(N)=O)[C@@H](C)c1ccccc1)[C@@H](C)c1ccccc1)[C@@H](C)c1ccccc1)[C@@H](C)c1ccccc1)C(=O)CN(C(=O)CNCCCCN)[C@@H](C)c1ccccc1 [peptoid 49] (H-[Nlys][Nspe][Nspe][Nlys][Nspe][Nspe][Nlys][Nspe][Nspe][Nlys][Nlys]-NH2)")
"satisfied"
>>> label_value("C[C@@H](c1ccccc1)N(CC(N)=O)C(=O)CN(C(=O)CN(CCCCN)C(=O)CN(C(=O)CN(CCc1c[nH]c2ccccc12)C(=O)CN(CCCCN)C(=O)CN(CCc1c[nH]c2ccccc12)C(=O)CN(C(=O)CN(CCCCN)C(=O)CN(C(=O)CN(C(=O)CNCCCCN)[C@@H](C)c1ccccc1)[C@@H](C)c1ccccc1)[C@@H](C)c1ccccc1)[C@@H](C)c1ccccc1)[C@@H](C)c1ccccc1 [15-AcOH]")
"not satisfied"

[in] Strictly below 30% in Hmax (100 µM)? NCCCCNCC(=O)N(CC(=O)N(CC(=O)N(CCCCN)CC(=O)N(CC(=O)N(CC(=O)N(CCCCN)CC(=O)N(CC(=O)N(CC(=O)N(CCCCN)CC(=O)N(CC(=O)N(CC(N)=O)Cc1ccccc1)Cc1ccccc1)Cc1ccccc1)Cc1ccccc1)Cc1ccccc1)Cc1ccccc1)Cc1ccccc1)Cc1ccccc1 [peptoid 2, reference compound] (H-[Nlys][Nphe][Nphe][Nlys][Nphe][Nphe][Nlys][Nphe][Nphe][Nlys][Nphe][Nphe]-NH2)
[out] satisfied

[in] Consider the compound C[C@@H](c1ccccc1)N(CC(N)=O)C(=O)CN(CCCCN)C(=O)CN(C(=O)CN(C(=O)CN(CCCCN)C(=O)CN(C(=O)CN(C(=O)CN(CCCCN)C(=O)CN(C(=O)CN(CCCCN)C(=O)CN(CCCCN)C(=O)CN(C(=O)CNCCc1c[nH]c2ccccc12)[C@@H](C)c1ccccc1)[C@@H](C)c1ccccc1)[C@@H](C)c1ccccc1)[C@@H](C)c1ccccc1)[C@@H](C)c1ccccc1)[C@@H](C)c1ccccc1 [peptoid 64] . Is its Hmax (100 µM) strictly less than 30%?
[out] satisfied
